Assay: Clinical bioequivalence study, IV (1.5-hr infusion) vs oral TMZ, primary CNS malignancies
Assay type: in vivo, human
Conditions: human, plasma; IV 1.5 hr infusion, 150 mg/m^2/day, Time 2 hr, n = 19; read-out: Mean Temozolomide Concentration

smiles | concentration at 2 hr
Cn1nnc2c(C(N)=O)ncn2c1=O | 5600 ng/mL

* * *

Assay: Clinical bioequivalence study, IV (1.5-hr infusion) vs oral TMZ, primary CNS malignancies
Assay type: in vivo, human
Settings: human, plasma; PO, 150 mg/m^2/day, Time 6 hr, n = 19; read-out: Mean Temozolomide Concentration

compound | unit_label | concentration at 6 hr
Cn1nnc2c(C(N)=O)ncn2c1=O [TMZ] | ng/mL | 1170

* * *

Assay: Clinical bioequivalence study, IV (1.5-hr infusion) vs oral TMZ, primary CNS malignancies
Assay type: in vivo, human
Details: human, plasma; IV 1.5 hr infusion, 150 mg/m^2/day, Time 0 hr, n = 19; read-out: Mean Temozolomide Concentration

smiles | unit_label | concentration at 0 hr
Cn1nnc2c(C(N)=O)ncn2c1=O | ng/mL | 0

* * *

Experiment: Two-way crossover pilot bioavailability study, IV (1-hour infusion) vs PO temozolomide
Format: in vivo, human
Conditions: human, plasma; TMZ PO, 150 mg/m2/day, n = 13; read-out: Cmax of TMZ, PO Mean (least-squares)
readout_label: Cmax

smiles | recorded_result
Cn1nnc2c(C(N)=O)ncn2c1=O | 6200 ng/mL

* * *

Assay: Clinical bioequivalence study, IV (1.5-hr infusion) vs oral TMZ, primary CNS malignancies
Assay type: in vivo, human
Settings: human, plasma; TMZ IV 1.5 hr infusion, 150 mg/m^2/day, n = 19; read-out: Tmax, Median (range)
readout_label: Tmax (h)

molecule | readout_label | recorded_result
Cn1nnc2c(C(N)=O)ncn2c1=O [TMZ] | Tmax | 1.5

* * *

Experiment: Clinical bioequivalence study, IV (1.5-hr infusion) vs oral TMZ, primary CNS malignancies
Format: in vivo, human
Settings: human, plasma, iv, 150 mg/m2, IV infusion about 1 hour to about 2 hours, single dose of 150 mg/m2; read-out: arithmetic AUC (from time zero to infinity) for temozolomide, range
readout_label: AUC

compound | recorded_result
Cn1nnc2c(C(N)=O)ncn2c1=O [TMZ] | 17600 to 37000 ng·h/mL

* * *

Assay: Clinical bioequivalence study, IV (1.5-hr infusion) vs oral TMZ, primary CNS malignancies
Type: in vivo, human
Conditions: human, plasma; IV 1.5 hr infusion, 150 mg/m^2/day, Time 0.5 hr, n = 19; read-out: Mean Temozolomide Concentration
Protocol: Twenty-two patients with primary CNS malignancies were enrolled in a clinical bioequivalence study and treated according to the methods of the present invention. Nineteen of the patients were considered to be pharmacokinetic evaluable. This study was a randomized, open-label, 2-way cross over study of the PK of oral and IV TMZ. The IV formulation of Example 3 is administered at a dosage of 150-200 mg/m^2 by intravenous infusion over a period of about 1.5 hours. […]

smiles | unit_label | concentration at 0.5 hr
Cn1nnc2c(C(N)=O)ncn2c1=O | ng/mL | 3670

* * *

Assay: Clinical bioequivalence study, IV (1.5-hr infusion) vs oral TMZ, primary CNS malignancies
Format: in vivo, human
Conditions: human, plasma; TMZ IV 1.5 hr infusion, 150 mg/m^2/day, n = 19; read-out: t½ terminal-phase half-life, Mean (CV, %) (converted)

smiles | half-life / h
Cn1nnc2c(C(N)=O)ncn2c1=O | 1.82

* * *

Experiment: Two-way crossover pilot bioavailability study, IV (1-hour infusion) vs PO temozolomide
Format: in vivo, human
Conditions: human, plasma, po, 150 mg/m^2/day, humans, n=13 patients; read-out: oral bioavailability
readout_label: bioavailability (%)

smiles | unit_label | recorded_result
Cn1nnc2c(C(N)=O)ncn2c1=O | % | 96

* * *

Test: Two-way crossover pilot bioavailability study, IV (1-hour infusion) vs PO temozolomide
Assay type: in vivo, human
Settings: human, plasma; TMZ IV 1-hour infusion, 150 mg/m2/day, n = 13; read-out: Cmax of TMZ, IV Mean (least-squares)

smiles | Cmax [ng/mL]
Cn1nnc2c(C(N)=O)ncn2c1=O | 7100

* * *

Assay: Clinical bioequivalence study, IV (1.5-hr infusion) vs oral TMZ, primary CNS malignancies
Type: in vivo, human
Conditions: human, plasma; PO, 150 mg/m^2/day, Time 0.5 hr, n = 19; read-out: Mean Temozolomide Concentration

smiles | unit_label | concentration at 0.5 hr
Cn1nnc2c(C(N)=O)ncn2c1=O | µg/mL | 5.32

* * *

Test: Clinical bioequivalence study, IV (1.5-hr infusion) vs oral TMZ, primary CNS malignancies
Assay type: in vivo, human
Conditions: human, plasma; IV 1.5 hr infusion, 150 mg/m^2/day, Time 3 hr, n = 18; read-out: Mean Temozolomide Concentration
readout_label: concentration at 3 hr (ng/mL)

compound | unit_label | recorded_result
Cn1nnc2c(C(N)=O)ncn2c1=O [TMZ] | ng/mL | 3860

* * *

Assay: Clinical bioequivalence study, IV (1.5-hr infusion) vs oral TMZ, primary CNS malignancies
Format: in vivo, human
Details: human, plasma; PO, 150 mg/m^2/day, Time 2 hr, n = 19; read-out: Mean Temozolomide Concentration
readout_label: concentration at 2 hr (ng/mL)

compound | unit_label | recorded_result
Cn1nnc2c(C(N)=O)ncn2c1=O [TMZ] | ng/mL | 4890

* * *

Experiment: Clinical bioequivalence study, IV (1.5-hr infusion) vs oral TMZ, primary CNS malignancies
Assay type: in vivo, human
Conditions: human, plasma; IV 1.5 hr infusion, 150 mg/m^2/day, Time 1.25 hr, n = 18; read-out: Mean Temozolomide Concentration

compound | concentration at 1.25 hr, ng/mL
Cn1nnc2c(C(N)=O)ncn2c1=O [TMZ] | 6590

* * *

Experiment: Two-way crossover pilot bioavailability study, IV (1-hour infusion) vs PO temozolomide
Assay type: in vivo, human
Settings: human, plasma; TMZ IV 1-hour infusion, 150 mg/m2/day, n = 13; read-out: AUC of TMZ, IV Mean (least-squares)

smiles | AUC (ng·h/mL)
Cn1nnc2c(C(N)=O)ncn2c1=O | 21500

* * *

Assay: Clinical bioequivalence study, IV (1.5-hr infusion) vs oral TMZ, primary CNS malignancies
Format: in vivo, human
Conditions: human, plasma, po, 150 mg/m2, TMZ PO, 150 mg/m^2/day, n = 19 PE; read-out: Cmax of TMZ, PO Mean (least-squares)

smiles | Cmax [ng/mL]
Cn1nnc2c(C(N)=O)ncn2c1=O | 7540

* * *

Experiment: Clinical bioequivalence study, IV (1.5-hr infusion) vs oral TMZ, primary CNS malignancies
Type: in vivo, human
Settings: human, plasma, iv, 150 mg/m^2/day, TMZ IV 1.5 hr infusion, 150 mg/m^2/day, n = 19; read-out: AUC(tf) of TMZ, Mean
readout_label: AUC

compound | recorded_result
Cn1nnc2c(C(N)=O)ncn2c1=O [TMZ] | 23400 ng·h/mL

* * *

Assay: Clinical bioequivalence study, IV (1.5-hr infusion) vs oral TMZ, primary CNS malignancies
Type: in vivo, human
Details: human, plasma; PO, 150 mg/m^2/day, Time 1.75 hr, n = 18; read-out: Mean Temozolomide Concentration

compound | unit_label | concentration at 1.75 hr
Cn1nnc2c(C(N)=O)ncn2c1=O [TMZ] | µg/mL | 5.36

* * *

Assay: Clinical bioequivalence study, IV (1.5-hr infusion) vs oral TMZ, primary CNS malignancies
Assay type: in vivo, human
Conditions: human, plasma; PO, 150 mg/m^2/day, Time 8 hr, n = 19; read-out: Mean Temozolomide Concentration

compound | unit_label | concentration at 8 hr
Cn1nnc2c(C(N)=O)ncn2c1=O [TMZ] | ng/mL | 560

* * *

Assay: Clinical bioequivalence study, IV (1.5-hr infusion) vs oral TMZ, primary CNS malignancies
Type: in vivo, human
Conditions: human, plasma, 150 mg/m2; TMZ PO, 150 mg/m^2/day, n = 19; read-out: t½ terminal-phase half-life, Mean (CV, %) (converted)

compound | half-life [h]
Cn1nnc2c(C(N)=O)ncn2c1=O [TMZ] | 1.91
